Test system: RXRa DBDmut IVT, anti-RXR (DBD mutation: RXRa K156A/R161A, NR concentration 90 nM)
Experiment: PBM binding z-score (relative to random genomic background probes); higher = stronger binding; sequences stand for … in GC…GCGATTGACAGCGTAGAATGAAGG
As shown below, each of these sequences has a reported PBM binding z-score value.
Would you mind answering with just the numeric figure?

Value (PBM binding z-score, RXRa DBDmut IVT, anti-RXR (DBD mutation: RXRa K156A/R161A, NR concentration 90 nM)) for record TGAATGAGGTTAAAGATCAGTGAACGTGGCGTCG = 1.33

Recorded PBM binding z-score for TCTTGTAGATCAAAGGTTAAGAACGCCGAAGCCT on RXRa DBDmut IVT, anti-RXR (DBD mutation: RXRa K156A/R161A, NR concentration 90 nM) was 0.794

Now look at this one.
Value sought: PBM binding z-score, system RXRa DBDmut IVT, anti-RXR (DBD mutation: RXRa K156A/R161A, NR concentration 90 nM), item CCTTACGGGTCACGAGGTTATAGCCCGACGAGCG . Result: 1.81

* * *

Test system: RARg homodimer (NR concentration 270 nM)
Assay: PBM binding z-score (relative to random genomic background probes); higher = stronger binding; sequences stand for … in GC…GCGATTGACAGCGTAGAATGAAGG
Property name: PBM binding z-score

Recorded result, CCAGACAGGTGAGTAGGTAACTCAGCCTCGATTA , PBM binding z-score: 0.224

***
Data point: CAAACTAGGTCAAGGTCAAACTCGGTTTGTGCCA ; PBM binding z-score = 6.55

The sequence identified as CTCGAAAGGTCGTGCTCAGGTGACTATACCAAAC registered its PBM binding z-score at 3.82

For this sequence ( GAAACGAGGGCAAGTTGATAGCAGAGTTTGATGG ), measured PBM binding z-score is 1.94

* * *

Below, each of the sequences is paired with its reported PBM binding z-score value.
Tested on: VDR:RXRa (NR concentration 270 nM, RXRa partner concentration 90 nM)
Assay: PBM binding z-score (relative to random genomic background probes); higher = stronger binding; sequences stand for … in GC…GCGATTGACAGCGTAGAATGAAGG
The answer should be a number; do not append a unit.

Here is how some sequences turned out for PBM binding z-score.
In plain terms, CCAGACAGGTGAGAAGGGAACTCAGCCTCGATTA has a documented PBM binding z-score of -0.443

Short answer for CCGACTGGGGCAGAAAGGTTACCTTACCATCCGG : PBM binding z-score was 0.875

***
The sequence listed as ATACCAAGGTGATCGTGAGGTCGTTAATACTAAC shows PBM binding z-score equal to 3.1

Form field PBM binding z-score, entry TCGAGTCGGTTAGTCGGGGCATTCAGCCAACATA : 0.217

Per the records, this sequence ( ACTTACGGGTCCACGAGGTTATAGCACGCGTATA ) has PBM binding z-score equal to 3.52

// PBM binding z-score value for GCTTACGGGTTAAAGGTTATAGCATGAATAGAAT : 3.18

Per the record, TGAATGGGGTTAAAGATCAGGGAACGTGGCGTCG has PBM binding z-score of 3.29

Looking up CCGACTGGGGCAAAGGTTAGCATACTCAGTACGA , I found its PBM binding z-score recorded as 0.691
